- protocol: oral pharmacokinetics in male CD1 mice (plasma, LC/MS/MS)
- Type: in vivo
- measurement_conditions: mouse, oral 10 mg/kg, plasma
property_name: AUC(0-t) (ng·h/mL)
Express it in ng·h/mL; write the number only.

Field request: AUC(0-t) | item: NS(=O)(=O)c1ccc(Cc2c(-c3cccc(-c4ccccc4)c3)nn(-c3nc(C(=O)O)cs3)c2C(F)(F)F)cc1
1210

###

The entries below are paired with their reported IC50.
- target_entity: Human LDHA (Homo sapiens (Human), UniProt P00338)
- protocol: human LDHA primary biochemical assay (resazurin/diaphorase coupled, fluorescence)
- measurement_conditions: read-out: Inhibitory activity IC50

Consider the following illustrative entries.
May I ask what IC50 has been recorded for O=C(O)c1csc(-n2cc(Br)c(-c3cccc(-c4ccccc4)c3)n2)n1 ?
1000 to 57000 nM

Another molecule to check: N[S+](=O)([O-])c1ccc(Cc2c(Cc3ccccc3)nn(-c3nc(C(=O)O)cs3)c2-c2ccccc2)cc1
1000 to 57000 nM

What about this molecule? Cc1csc(-c2cc(-c3c(Cc4ccc(S(N)(=O)=O)c(F)c4)c(CC4CC4)nn3-c3nc(C(=O)O)cs3)ccc2F)c1
> 57000 nM

Others:
Need IC50 of Nc1c(Cc2ccc(S(N)(=O)=O)cc2)c(-c2ccccc2)nn1-c1ccc(Cl)nn1 , thanks.
1000 to 57000 nM

Next up: NS(=O)(=O)c1ccc(Cc2cn(-c3nc(C(=O)O)cs3)c3cc(CN4CCOCC4)ccc23)cc1
100 to 1000 nM

###

- target_entity: UniProtKB P00338
- protocol: human LDHA primary biochemical assay (resazurin/diaphorase coupled, fluorescence)
- measurement_conditions: LDHA inhibitory activity, activity level based on IC50 (Table 7)
property_name: IC50

For orientation, consider the following solved cases.
// map Cc1ccc(-c2nn(-c3nc(C(=O)O)cs3)cc2Cc2ccc(S(N)(=O)=O)cc2)cc1-c1cccc(N)c1 to recorded IC50 (system: UniProtKB P00338)
< 100 nM

// next record NS(=O)(=O)c1ccc(Cc2c(-c3cccc(Oc4cccc(F)c4)c3)nn(-c3nc(C(=O)O)cs3)c2CC2CC2)cc1
100 to 1000 nM

Next compound: N[S+](=O)([O-])c1ccc(Cc2c(-c3ccc(F)c(C4CCOCC4)c3)nn(-c3nc(C(=O)O)cs3)c2CC2CC2)cc1F
< 100 nM

Another compound to look at: Cc1ccc(-c2nn(-c3nc(C(=O)O)cs3)cc2Cc2ccc(S(N)(=O)=O)cc2)cc1-c1ccncc1
100 to 1000 nM

Similarly, CC(C)c1cc(-c2nn(-c3nc(C(=O)O)cs3)c(CC3CC3)c2Cc2ccc(S(N)(=O)=O)c(F)c2)ccc1F ?
< 100 nM

Continue with the compound presented below.
What reported IC50 corresponds to CCOC(=O)c1csc(-n2nc(-c3ccc(F)c(C#CC4CC4)c3)c(Cc3ccc(S(N)(=O)=O)cc3)c2CC2CC2)n1 on UniProtKB P00338?
1000 to 57000 nM

###

- target_entity: Human LDHA (Homo sapiens (Human), UniProt P00338)
- protocol: human LDHA primary biochemical assay (resazurin/diaphorase coupled, fluorescence)
- measurement_conditions: read-out: Inhibitory activity IC50
The compounds listed here are annotated with their IC50.

# count of solved cases: 5
Give its IC50 value. Item: Cc1noc(C)c1-c1cc(-c2c(Cc3ccc(S(N)(=O)=O)c(F)c3)c(CC3CC3)nn2-c2nc(C(=O)O)cs2)ccc1F
> 57000 nM

Here is the next compound: NS(=O)(=O)c1ccc(Oc2c(C3CC3)nn(-c3nc(C(=O)O)cs3)c2-c2cccc(-c3ccccc3)c2)cc1
1000 to 57000 nM

What about this compound? NS(=O)(=O)c1ccc(Cc2c(-c3ccccc3)nn(-c3nc(C(=O)O)cs3)c2C2CCCC2)cc1
100 to 1000 nM

Likewise for NS(=O)(=O)c1ccc(Cc2c(-c3ccccc3)nn(-c3nc(C(=O)O)cs3)c2C#Cc2ccccc2)cc1 ?
1000 to 57000 nM

Do the same for NS(=O)(=O)c1ccc(Cc2c(C3CCCCC3)nn(-c3nc(C(=O)O)cs3)c2-c2ccccc2)cc1 please
1000 to 57000 nM

Shift focus to the following entry.
I have this compound here, NS(=O)(=O)c1ccc(Cc2c(-c3ccccc3)nn(-c3nc(C(=O)O)cs3)c2C2CCCCC2)cc1 , and I need its recorded IC50.
1000 to 57000 nM

###

Overview of recorded IC50 for various compounds
- target_entity: Human LDHA (Homo sapiens (Human), UniProt P00338)
- protocol: human LDHA primary biochemical assay (resazurin/diaphorase coupled, fluorescence)
- measurement_conditions: LDHA inhibitory activity, activity level based on IC50 (Table 7)

Quick one: IC50 for CCOC(=O)c1csc(-n2nc(-c3ccc(F)c(C#CC4CCCC4)c3)c(Cc3ccc([S+](N)(=O)[O-])cc3)c2CC2CC2)n1 [Compound 429] ?
1000 to 57000 nM

Do the same for N[S+](=O)([O-])c1ccc(Cc2c(-c3ccc(F)c(-c4ccccc4)c3)nn(-c3nc(C(=O)O)cs3)c2CC2CC2)cc1F [Compound 367] please
< 100 nM

Another: NS(=O)(=O)c1ccc(Cc2c(-c3cccc(C(O)(C4CC4)C(F)(F)F)c3)nn(-c3nc(C(=O)O)cs3)c2CC2CC2)cc1F (stereo not drawn) [Compound 398]
< 100 nM

###

Each entry below lists one item and its recorded IC50 value.
- target_entity: Human LDHA (Homo sapiens (Human), UniProt P00338)
- protocol: human LDHA primary biochemical assay (resazurin/diaphorase coupled, fluorescence)
- measurement_conditions: read-out: Inhibitory activity IC50

Below, each entry is followed by its recorded IC50 result.
So what's the measured IC50 for this one? NS(=O)(=O)c1ccc(Cc2c(CC3CC3)nn(-c3nc(C(=O)O)cs3)c2-c2ccccc2)cc1
0.1 to 1 µM

Let us now turn to NS(=O)(=O)c1ccc(Cc2c(-c3ccccc3)nn(-c3nc(C(=O)O)cs3)c2Cc2ccccc2)cc1
0.1 to 1 µM

# repeat for Cc1ccc(-c2cccc(-c3c(Cc4ccc([S+](N)(=O)[O-])c(F)c4)c(CC4CC4)nn3-c3nc(C(=O)O)cs3)c2)cc1
1 to 57 µM

Could you now look at the following compound, please?
# query: IC50 of entry NS(=O)(=O)c1ccc(Cc2c(CCC3CC3)nn(-c3nc(C(=O)O)cs3)c2-c2cccc(-c3ccccc3)c2)cc1
1 to 57 µM

###

- target_entity: UniProt P00338
- protocol: human LDHA primary biochemical assay (resazurin/diaphorase coupled, fluorescence)
- measurement_conditions: LDHA inhibitory activity, assay of Example 1; activity level classes
property_name: IC50

Would you mind telling me what IC50 value was observed for CC#Cc1cccc(-c2nn(-c3nc(C(=O)O)cs3)c(CC3CC3)c2Cc2ccc(S(N)(=O)=O)c(F)c2)c1 [Compound 270] ?
< 100 nM

More entries:
Any idea what its IC50 is? The compound is COc1cccc(-c2cc(-c3nn(-c4nc(C(=O)O)cs4)c(C4CC4)c3Cc3ccc(S(N)(=O)=O)c(F)c3)ccc2F)c1 [Compound 252]
< 100 nM

Check CC(C)(O)C#Cc1cc(-c2nn(-c3nc(C(=O)O)cs3)c(CC3CC3)c2Cc2ccc(S(N)(=O)=O)c(F)c2)ccc1F [Compound 265] too.
< 100 nM

###

- target_entity: Human LDHA (Homo sapiens (Human))
- protocol: human LDHA primary biochemical assay (resazurin/diaphorase coupled, fluorescence)
- measurement_conditions: LDHA inhibitory activity, assay of Example 1; activity level classes
pIC50: −log10 of the molar value.
property_name: pIC50

Fill blank: measured pIC50 of the compound CCOC(=O)c1csc(-n2nc(-c3ccc(F)c(-c4cccc(F)c4)c3)c(Cc3ccc(S(N)(=O)=O)c(F)c3)c2C2CC2)n1 [Compound 247] is ____.
4.24 to 6.00

Others:
# get_value(readout='pIC50', item= O=C(O)c1csc(-n2nc(-c3ccc(F)c(F)c3)c(Cc3ccccc3)c2O)n1 [Compound 113] )
< 4.24

Could you do the same for O=C(O)c1csc(-n2cc(-c3ccc(F)c(F)c3)c3cccc(O)c32)n1 [Compound 125] , please?
< 4.24

And for CS(=O)(=O)Nc1cc(-c2cc(O)n(-c3nc(C(=O)O)cs3)n2)ccc1F [Compound 103] ?
< 4.24

Query NS(=O)(=O)c1ccc(Oc2c(C3CCCC3)nn(-c3nc(C(=O)O)cs3)c2-c2ccccc2)cc1 [Compound 174] next
4.24 to 6.00

Next compound up: Cc1ccc(-c2cc(-c3nn(-c4nc(C(=O)O)cs4)c(C4CC4)c3Cc3ccc(S(N)(=O)=O)cc3F)ccc2F)cc1 [Compound 253]
> 7.00

Please do the same for CCOC(=O)c1csc(-n2nc(-c3cccc(-c4ccccc4)c3)c(Cc3ccc(S(N)(=O)=O)cc3)c2CC2CC2)n1 [Compound 279] as well.
4.24 to 6.00

# iterate: N[S+](=O)([O-])c1ccc(Cc2c(-c3ccc(F)c(-c4cccc(F)c4)c3)nn(-c3nc(C(=O)O)cs3)c2CC2CC2)cc1F [Compound 326]
> 7.00

Another compound to check: NS(=O)(=O)c1ccc(Cc2c(-c3cccc(-c4ccccc4)c3)nn(-c3nc(C(=O)O)cs3)c2C2(C(F)(F)F)CC2)cc1F [Compound 302]
4.24 to 6.00

Further, for CCOC(=O)c1csc(-n2nc(-c3ccc(F)c(F)c3)cc2O)n1 [Compound 121] ?
< 4.24

Can you handle NS(=O)(=O)c1ccc(Cc2c(-c3ccc(F)c(F)c3)nn(-c3nc(C(=O)O)cs3)c2C(F)(F)F)cc1 [Compound 39] next?
> 7.00

Same for COc1cccc(-c2cc(-c3nn(-c4nc(C(=O)O)cs4)c(C(F)(F)F)c3Cc3ccc(S(N)(=O)=O)cc3)ccc2F)c1 [Compound 242]
> 7.00

What do you have for NS(=O)(=O)c1ccc(Cc2c(-c3ccc(F)c(Br)c3)nn(-c3nc(C(=O)O)cs3)c2CC2CC2)cc1 [Compound 296] ?
> 7.00

Then this compound: CC(=O)Nc1c(-c2ccccc2)nn(-c2nc(C(=O)O)cs2)c1O [Compound 126]
< 4.24

Same thing, different compound: Cc1ccc(-c2cc(-c3nn(-c4nc(C(=O)O)cs4)c(CC4CC4)c3Cc3ccc(S(N)(=O)=O)c(F)c3)ccc2F)cc1 [Compound 288]
> 7.00
